assay: Inhibition of BMI1 promoter (unknown origin) expressed in HEK293T cells after 24 hrs by luciferase reporter gene assay; type: cell-based; conditions: HEK-293T

compound	IC50, nM
CO[C@@H]1C[C@H](O[C@H]2CC[C@@]3(C)[C@H](CC[C@@H]4[C@@H]3CC[C@]3(C)[C@@H](C5=CC(=O)OC5)CC[C@]43O)C2)O[C@@H](C)[C@@H]1O	93
C=C(C)[C@@H]1CC[C@]2(C(=O)OC)CC[C@]3(C(=O)O)[C@H](CC[C@@H]4[C@@]5(C)CC[C@H](O)C(C)(C)[C@@H]5CC[C@]43C)[C@@H]12	19500
CO[C@H]1C[C@H](O[C@H]2CC[C@@]3(C)[C@H](CC[C@@H]4[C@@H]3CC[C@]3(C)[C@@H](C5=CC(=O)OC5)CC[C@]43O)C2)O[C@H](C)[C@H]1O	98
C[C@]12CC[C@H](O)C[C@H]1CC[C@@H]1[C@@H]2CC[C@]2(C)[C@@H](C3=CC(=O)OC3)CC[C@]12O [DIGITOXIGENIN]	1700
CO[C@H]1C[C@@H](O[C@H]2CC[C@@]3(C)[C@H](CC[C@@H]4[C@@H]3CC[C@]3(C)[C@@H](C5=CC(=O)OC5)CC[C@]43O)C2)O[C@@H](C)[C@@H]1O	450
CC1(C)CC[C@]2(C(=O)O)CC[C@]3(C)C(=CC[C@@H]4[C@@]5(C)C[C@@H](O)[C@H](O)C(C)(C)[C@@H]5CC[C@]43C)[C@@H]2C1 [MASLINIC ACID]	22700
